System: XF498
Assay: NCI tumour cell line growth inhibition, 48 h
Activity calls are given as the source filed them. Rule as the data show it: active = GI50 up to about 1.1 µM and inactive = higher.
Recorded GI50 for the following compounds
METRIC NAME: GI50

>>> measurement("NC(CCCC(N)P(=O)(O)c1ccccc1)P(=O)(O)c1ccccc1 (stereo unspecified)")
"> 261 µM (inactive)"
>>> measurement("c1cc2c(ncc3cscc32)s1")
"> 100 µM (inactive)"
>>> measurement("N#Cc1ccccc1C(Cl)(Cl)c1cnccn1")
"17.9 µM (inactive)"
>>> measurement("COc1ccc2c(c1)c(=O)c1ccccc1n2/C=C/C(=O)O")
"> 100 µM (inactive)"
>>> measurement("COC(=O)c1ccc(/C=C/S(=O)(=O)c2ccccc2)cc1")
"> 100 µM (inactive)"
>>> measurement("Cc1ccc(C2[C@H]3C(=O)N(c4ccc(Cc5ccc(N6C(=O)[C@@H]7ON(c8ccccc8)C(c8ccc(C)cc8)[C@@H]7C6=O)cc5)cc4)C(=O)[C@H]3ON2c2ccccc2)cc1 (stereo partly specified)")
"> 100 µM (inactive)"
>>> measurement("CC(=O)NC(CCCNC(=O)N(C)N=O)C(=O)NCc1ccccc1 (stereo unspecified)")
"> 100 µM (inactive)"
>>> measurement("CC(=O)C1CC(C)=CCC12C(=O)Nc1ccccc12 (stereo unspecified)")
"> 100 µM (inactive)"
>>> measurement("COc1ccc2c(c1)O[C@H]1c3ccc(O)cc3OC[C@@H]21")
"20.5 µM (inactive)"
>>> measurement("CC1OC(=O)C(O)=C1O (stereo unspecified)")
"> 100 µM (inactive)"
>>> measurement("CC1(C)N=C(N)N=C(N)N1c1ccc(CCCCc2ccc(S(=O)(=O)F)cc2Cl)c(Cl)c1")
"1.49 µM (inactive)"
>>> measurement("Cc1nc2ccc(C(F)(F)F)cc2nc1Nc1ccc(Cl)c(Cl)c1")
"10 µM (inactive)"
>>> measurement("O=c1[nH]nc2ccccc2c1Cc1ccccc1")
"> 100 µM (inactive)"
>>> measurement("CCCNC(=O)C(C)C1CCC2(C)C=CC(=O)C(C)=C2C1O (stereo unspecified)")
"> 100 µM (inactive)"
>>> measurement("COC(=O)c1ccc2n[se]nc2c1")
"> 100 µM (inactive)"
>>> measurement("O=C1c2ccccc2C(=O)N1CCN(CCN1C(=O)c2ccccc2C1=O)Cn1cccn1")
"> 100 µM (inactive)"
>>> measurement("C=CCCC(C)N(C(=O)OC(C)(C)C)S(=O)(=O)c1ccc(C)cc1 (stereo unspecified)")
"> 100 µM (inactive)"
>>> measurement("O=C(Nc1ccccc1SC(/C=C/NNC1=NN=C(c2ccccc2)C(c2ccccc2)N1)c1ccccc1)c1ccc(Cl)cc1Cl (stereo unspecified)")
"> 10 µM (inactive)"
>>> measurement("COc1ccc(C(c2ccc(C(C)C)cc(=O)c2O)c2c(O)cc3oc(-c4ccccc4)cc(=O)c3c2O)cc1 (stereo unspecified)")
"9.4 µM (inactive)"
>>> measurement("CNC1CC(n2cc(C)c(=O)[nH]c2=O)OC1CO (stereo unspecified)")
"> 100 µM (inactive)"
>>> measurement("CC(=O)Nc1ccc(C2C(C(=O)Nc3ccccc3C)=C(C)NC(C)=C2C(=O)Nc2ccccc2C)cc1")
"> 100 µM (inactive)"
